The values you see were collected from the supplement of paper PMC11732987.

biological target: OTUD7B (UniProt Q6GQQ9); test: log2 ratio of Biotin-Ahx-Ub-VS probe labelling (fragment/DMSO); higher = less target engagement (more negative = stronger competition), active = hit call of the paper (q ≤ 0.05, log2 ratio ≤ -1); conditions: compound concentration: 200 uM; treatment time: 3 h
Response key: fulfilled means log2 ratio of Biotin-Ahx-Ub-VS probe labelling >= -0.7; not fulfilled means log2 ratio of Biotin-Ahx-Ub-VS probe labelling < -0.7.

1. Cc1ccc2nnc(CNC(=O)CCl)n2c1    fulfilled
2. Cc1cccc(N2CCC(NC(=O)CCl)C2=O)c1 (stereo not drawn)    not fulfilled
3. CN1c2ccccc2C(NC(=O)CCl)CS1(=O)=O (stereo not drawn)    not fulfilled
4. Cl.O=C(CCl)N[C@H]1C[C@@H](n2cccn2)C1    not fulfilled
5. O=C(CCl)N1CCC(OCc2ccccc2F)CC1    fulfilled
6. O=C(CCl)NC1CCN(C(=O)C2CCCCC2)CC1    fulfilled
7. COc1ccc(-c2csc(NC(=O)CCl)n2)cc1    fulfilled
8. Cc1cccc2nc(CCNC(=O)CCl)cn12.Cl    fulfilled
9. NS(=O)(=O)c1ccc(Cl)c(NC(=O)CCl)c1    not fulfilled
10. Cc1cccnc1NC(=O)C1CCN(C(=O)CCl)CC1.Cl    fulfilled
11. Cl.O=C(CCl)N1CCc2ncncc2C1    fulfilled
12. CC(NC(=O)CCl)c1cccc2ccccc12 (stereo not drawn)    not fulfilled
13. O=C(CCl)NCCC1COCCO1 (stereo not drawn)    fulfilled
14. Cl.O=C(CCl)NC1(c2ncccn2)CCC1    fulfilled
15. CCN1C(=O)C2CN(C(=O)CCl)CCN2C1=O (stereo not drawn)    fulfilled
16. CC(NC(=O)CCl)c1csc(-c2ccccc2)n1.Cl (stereo not drawn)    not fulfilled
17. Cc1cccc(NC(=O)CCl)c1C    fulfilled
18. O=C(CCl)N1CCN(C(=O)N2CCCCC2)CC1    not fulfilled
19. Cc1ccc(C)c(Oc2ccc(CNC(=O)CCl)cn2)c1.Cl    not fulfilled
20. O=C(CCl)N1CC2(CCOCC2)C1    fulfilled
21. Cl.O=C(CN1CCN(C(=O)CCl)CC1)Nc1ccc(F)cc1    fulfilled
22. COc1ccc(C2CCCN2C(=O)CCl)c(OC)c1 (stereo not drawn)    fulfilled
23. O=C(CCl)N1CCCN(C(=O)c2ccc(Cl)cc2)CC1    not fulfilled
24. C/C(=C\CNC(=O)CCl)c1cnn(C)c1.Cl    not fulfilled
25. O=C(CCl)Nc1ccc(F)cc1Cl    fulfilled
26. O=C(CCl)N1CCOCC1C1CC1 (stereo not drawn)    fulfilled
27. CCN(C(=O)CCl)C1CCS(=O)(=O)C1 (stereo not drawn)    fulfilled

* * *

target: USP48 (UniProt Q86UV5); assay: log2 ratio of Biotin-Ahx-Ub-VS probe labelling (fragment/DMSO); higher = less target engagement (more negative = stronger competition), active = hit call of the paper (q ≤ 0.05, log2 ratio ≤ -1); conditions: compound concentration: 200 uM; treatment time: 3 h
Sequence (Q86UV5 whole entry, the tested form may be a part): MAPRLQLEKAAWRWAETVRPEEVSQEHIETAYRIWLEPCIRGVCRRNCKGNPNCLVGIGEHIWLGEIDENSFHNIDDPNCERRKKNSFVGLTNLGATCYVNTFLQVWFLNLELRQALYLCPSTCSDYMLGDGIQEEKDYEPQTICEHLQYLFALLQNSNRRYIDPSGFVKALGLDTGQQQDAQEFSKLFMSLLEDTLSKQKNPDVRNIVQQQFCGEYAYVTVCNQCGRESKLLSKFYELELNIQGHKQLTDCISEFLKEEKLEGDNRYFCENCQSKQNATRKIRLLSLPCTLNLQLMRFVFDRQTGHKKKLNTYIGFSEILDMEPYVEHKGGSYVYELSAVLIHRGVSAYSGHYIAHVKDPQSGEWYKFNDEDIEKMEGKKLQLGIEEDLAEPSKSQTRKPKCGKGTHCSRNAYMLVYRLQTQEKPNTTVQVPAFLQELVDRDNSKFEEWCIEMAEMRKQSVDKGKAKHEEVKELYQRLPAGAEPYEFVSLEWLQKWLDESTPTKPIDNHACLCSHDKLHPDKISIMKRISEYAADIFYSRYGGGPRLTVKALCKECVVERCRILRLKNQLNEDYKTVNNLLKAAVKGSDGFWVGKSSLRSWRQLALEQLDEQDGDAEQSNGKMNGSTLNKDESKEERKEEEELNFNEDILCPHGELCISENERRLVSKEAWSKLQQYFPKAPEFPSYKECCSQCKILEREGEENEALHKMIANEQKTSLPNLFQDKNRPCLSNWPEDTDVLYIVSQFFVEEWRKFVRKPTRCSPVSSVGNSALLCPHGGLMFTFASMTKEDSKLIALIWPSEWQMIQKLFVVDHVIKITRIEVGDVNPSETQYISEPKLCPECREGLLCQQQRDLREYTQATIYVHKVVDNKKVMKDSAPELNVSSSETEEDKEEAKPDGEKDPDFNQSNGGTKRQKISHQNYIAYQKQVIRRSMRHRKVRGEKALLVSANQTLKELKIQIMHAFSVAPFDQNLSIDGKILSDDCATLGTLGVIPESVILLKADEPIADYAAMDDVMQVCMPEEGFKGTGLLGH
Possible outcomes: active, inactive

1) Cc1nc(CN2CCN(C(=O)CCl)CC2)cs1    inactive
2) O=C(CCl)NC1CCCCNC1=O (stereo unspecified)    inactive
3) Cc1cc(CC(C)NC(=O)CCl)n[nH]1 (stereo unspecified)    inactive
4) O=C(CCl)N1CCCN(C(=O)c2ccc(Cl)cc2)CC1    active
5) Cc1cccc(N(CCC#N)C(=O)CCl)c1C    inactive
6) O=C(CCl)Nc1nnc(CC(F)(F)F)o1    inactive

* * *

target: USP38 (UniProt Q8NB14); experiment: log2 ratio of Biotin-Ahx-Ub-VS probe labelling (fragment/DMSO); higher = less target engagement (more negative = stronger competition), active = hit call of the paper (q ≤ 0.05, log2 ratio ≤ -1); conditions: compound concentration: 200 uM; treatment time: 3 h
Sequence (Q8NB14 whole entry, the tested form may be a part): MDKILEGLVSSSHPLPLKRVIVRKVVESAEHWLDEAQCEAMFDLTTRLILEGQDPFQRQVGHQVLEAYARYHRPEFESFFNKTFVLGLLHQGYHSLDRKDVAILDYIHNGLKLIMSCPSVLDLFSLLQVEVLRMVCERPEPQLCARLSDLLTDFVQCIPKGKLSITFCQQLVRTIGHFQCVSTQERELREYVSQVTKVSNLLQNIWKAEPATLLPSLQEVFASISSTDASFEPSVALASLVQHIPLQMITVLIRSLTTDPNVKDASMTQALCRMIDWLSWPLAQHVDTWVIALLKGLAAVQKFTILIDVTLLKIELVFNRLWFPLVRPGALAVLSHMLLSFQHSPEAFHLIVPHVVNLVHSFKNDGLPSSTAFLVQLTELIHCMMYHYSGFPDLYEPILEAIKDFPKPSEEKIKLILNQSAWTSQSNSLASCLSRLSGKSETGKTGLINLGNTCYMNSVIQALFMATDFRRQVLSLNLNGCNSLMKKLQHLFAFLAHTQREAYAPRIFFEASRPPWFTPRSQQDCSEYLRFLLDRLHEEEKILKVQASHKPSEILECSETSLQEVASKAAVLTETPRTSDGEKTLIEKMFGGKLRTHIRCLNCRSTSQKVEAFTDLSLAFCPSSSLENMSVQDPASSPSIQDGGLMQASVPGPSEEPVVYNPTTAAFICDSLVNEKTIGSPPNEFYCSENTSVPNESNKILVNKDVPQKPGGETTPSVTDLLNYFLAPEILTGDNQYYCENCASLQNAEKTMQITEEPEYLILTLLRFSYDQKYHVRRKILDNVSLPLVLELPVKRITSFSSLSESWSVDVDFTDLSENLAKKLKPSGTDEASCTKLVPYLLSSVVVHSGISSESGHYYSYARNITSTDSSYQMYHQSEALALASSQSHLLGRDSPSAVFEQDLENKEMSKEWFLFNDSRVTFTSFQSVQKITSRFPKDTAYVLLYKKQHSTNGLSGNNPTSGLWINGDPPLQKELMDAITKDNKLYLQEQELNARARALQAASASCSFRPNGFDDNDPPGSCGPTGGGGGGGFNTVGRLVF
log2 ratio of Biotin-Ahx-Ub-VS probe labelling: recorded values
property: log2 ratio of Biotin-Ahx-Ub-VS probe labelling

1. CC(C)n1nccc1NC(=O)CCl    -0.0818
2. Cl.O=C(CCl)NCc1ccnc(Oc2ccccc2F)c1    -0.00457
3. O=C(CCl)Nc1cc(Cl)ccc1C(=O)O    0.105
4. Cc1nc(CN2CCN(C(=O)CCl)CC2)cs1    -0.217
5. Cc1ccc(-c2nnc(C)[nH]2)c(NC(=O)CCl)c1    0.151
6. O=C(O)C1Cc2ccccc2CN1C(=O)CCl (centres undefined)    -0.252
7. O=C(CCl)Nc1nc(-c2cccs2)cs1    -0.092
8. O=C(CCl)N1CCc2[nH]c3ccccc3c2C1    -0.674
9. Cc1n[nH]c2c1CN(C(=O)CCl)CC2    -0.715
10. Cc1ccc(C)c(Oc2ccc(CNC(=O)CCl)cn2)c1.Cl    -0.222
11. O=C(CCl)Nc1cccc2ncccc12    0.13
12. Cc1nnc(C(NC(=O)CCl)c2ccccc2)n1C (centres undefined)    0.538
13. N#Cc1ccc(Cl)cc1NC(=O)CCl    -0.0529
14. CCC(NC(=O)CCl)c1ccc(Cl)cc1 (centres undefined)    0.0692

* * *

molecular target: UniProt O00507; experiment: log2 ratio of Biotin-Ahx-Ub-VS probe labelling (fragment/DMSO); higher = less target engagement (more negative = stronger competition), active = hit call of the paper (q ≤ 0.05, log2 ratio ≤ -1); conditions: compound concentration: 200 uM; treatment time: 3 h
Sequence (O00507 whole entry, the tested form may be a part): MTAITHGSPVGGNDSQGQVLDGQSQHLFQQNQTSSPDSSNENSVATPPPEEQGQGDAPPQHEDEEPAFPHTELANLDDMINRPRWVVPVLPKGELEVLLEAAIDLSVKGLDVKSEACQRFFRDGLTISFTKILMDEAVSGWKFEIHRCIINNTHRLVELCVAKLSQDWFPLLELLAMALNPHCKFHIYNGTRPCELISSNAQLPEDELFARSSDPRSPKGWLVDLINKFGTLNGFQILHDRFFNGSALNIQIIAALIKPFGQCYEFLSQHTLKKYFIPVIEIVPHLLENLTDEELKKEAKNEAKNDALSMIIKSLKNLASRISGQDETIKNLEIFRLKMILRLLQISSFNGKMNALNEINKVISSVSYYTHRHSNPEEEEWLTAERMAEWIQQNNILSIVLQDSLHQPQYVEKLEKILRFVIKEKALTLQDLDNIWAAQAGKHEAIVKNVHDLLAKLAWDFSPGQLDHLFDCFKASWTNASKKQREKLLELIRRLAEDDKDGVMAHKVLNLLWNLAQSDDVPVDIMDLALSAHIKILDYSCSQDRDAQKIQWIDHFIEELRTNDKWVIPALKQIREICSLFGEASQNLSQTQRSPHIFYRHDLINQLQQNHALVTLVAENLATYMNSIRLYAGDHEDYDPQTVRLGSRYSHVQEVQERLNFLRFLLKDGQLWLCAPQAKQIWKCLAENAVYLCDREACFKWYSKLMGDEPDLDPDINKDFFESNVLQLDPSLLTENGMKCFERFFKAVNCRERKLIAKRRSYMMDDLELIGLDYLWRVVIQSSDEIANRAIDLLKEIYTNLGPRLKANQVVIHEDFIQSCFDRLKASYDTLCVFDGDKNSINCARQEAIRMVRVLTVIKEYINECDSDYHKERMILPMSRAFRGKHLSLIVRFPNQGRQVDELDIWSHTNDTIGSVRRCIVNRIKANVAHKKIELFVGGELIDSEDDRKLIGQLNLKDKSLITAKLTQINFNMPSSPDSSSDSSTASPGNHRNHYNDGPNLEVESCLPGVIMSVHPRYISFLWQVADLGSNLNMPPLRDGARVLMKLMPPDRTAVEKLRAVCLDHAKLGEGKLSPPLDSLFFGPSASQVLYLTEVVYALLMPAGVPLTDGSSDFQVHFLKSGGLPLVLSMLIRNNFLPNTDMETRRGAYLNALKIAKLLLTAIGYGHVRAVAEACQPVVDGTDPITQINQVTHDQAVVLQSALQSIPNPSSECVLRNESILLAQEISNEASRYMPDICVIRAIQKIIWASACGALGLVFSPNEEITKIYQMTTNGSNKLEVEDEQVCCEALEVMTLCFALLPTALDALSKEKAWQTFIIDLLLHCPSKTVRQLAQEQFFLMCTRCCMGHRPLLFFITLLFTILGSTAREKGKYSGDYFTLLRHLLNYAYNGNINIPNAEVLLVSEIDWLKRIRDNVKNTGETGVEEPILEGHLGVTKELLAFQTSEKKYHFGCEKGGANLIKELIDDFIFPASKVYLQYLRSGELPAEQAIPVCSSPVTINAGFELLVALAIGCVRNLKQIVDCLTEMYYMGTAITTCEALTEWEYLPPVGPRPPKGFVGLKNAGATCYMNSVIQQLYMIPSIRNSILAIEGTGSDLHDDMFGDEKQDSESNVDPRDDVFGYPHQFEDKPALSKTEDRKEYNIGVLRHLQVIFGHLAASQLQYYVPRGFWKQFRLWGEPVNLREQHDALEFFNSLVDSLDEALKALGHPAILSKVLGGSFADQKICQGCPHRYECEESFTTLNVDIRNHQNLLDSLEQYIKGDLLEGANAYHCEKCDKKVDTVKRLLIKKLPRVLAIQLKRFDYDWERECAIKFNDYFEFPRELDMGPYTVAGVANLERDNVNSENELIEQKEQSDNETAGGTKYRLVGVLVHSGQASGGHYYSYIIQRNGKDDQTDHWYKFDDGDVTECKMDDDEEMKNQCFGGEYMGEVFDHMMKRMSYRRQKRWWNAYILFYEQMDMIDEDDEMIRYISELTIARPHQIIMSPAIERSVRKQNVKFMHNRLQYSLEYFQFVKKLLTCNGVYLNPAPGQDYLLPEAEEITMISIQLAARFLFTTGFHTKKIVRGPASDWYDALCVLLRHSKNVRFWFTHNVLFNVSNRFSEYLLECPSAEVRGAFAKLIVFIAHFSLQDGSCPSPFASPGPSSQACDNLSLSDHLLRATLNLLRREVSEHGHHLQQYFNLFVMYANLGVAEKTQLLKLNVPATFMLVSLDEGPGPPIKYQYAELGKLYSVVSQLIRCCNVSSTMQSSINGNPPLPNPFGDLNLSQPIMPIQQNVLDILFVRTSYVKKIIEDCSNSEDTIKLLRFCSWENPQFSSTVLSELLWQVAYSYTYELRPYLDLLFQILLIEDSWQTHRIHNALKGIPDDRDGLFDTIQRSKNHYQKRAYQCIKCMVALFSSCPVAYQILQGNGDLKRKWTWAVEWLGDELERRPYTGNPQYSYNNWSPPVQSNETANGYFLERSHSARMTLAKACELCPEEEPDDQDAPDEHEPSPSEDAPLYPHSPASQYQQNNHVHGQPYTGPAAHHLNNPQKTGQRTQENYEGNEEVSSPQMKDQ
property: log2 ratio of Biotin-Ahx-Ub-VS probe labelling

1. O=C(CCl)NC1CCS(=O)(=O)c2ccccc21 (centres undefined)    -0.00358
2. COc1ccccc1C(C)NC(=O)CCl (centres undefined)    -0.445
3. Cc1noc(C)c1CNC(=O)CCl    -0.346
4. CC1CCc2onc(CNC(=O)CCl)c2C1 (centres undefined)    0.195
5. Cc1ccccc1C1(CNC(=O)CCl)CCOCC1    0.332
6. CCCn1nccc1NC(=O)CCl    -0.381
7. O=C(CCl)Nc1ccc(F)cc1Cl    -0.442
8. O=C(CCl)N1CCOCCC1c1ccccc1 (centres undefined)    -0.114
9. Cl.O=C(CCl)N1CCC(n2nc3ccccc3n2)CC1    -0.531
10. O=C(CCl)NC1CCOc2ccccc21 (centres undefined)    -0.574
11. O=C(CCl)Nc1cc2c(cc1Cl)OCCCO2    0.443
12. O=C(CCl)N1CCC(c2ccn[nH]2)C1 (centres undefined)    -0.147
13. O=C(CCl)N(C1CCCC1)C1CCS(=O)(=O)C1 (centres undefined)    0.335
14. O=C(CCl)N1CCc2ccccc2C(O)C1 (centres undefined)    -0.255
15. C#Cc1cccc(NC(=O)CCl)c1    0.0122
16. Cc1cccc(NC(=O)CCl)c1C    -0.281
17. O=C(CCl)N1CCC(O)(Cc2ccc(F)cc2)C1 (centres undefined)    -0.253
18. Cc1c(NC(=O)CCl)c(=O)n(-c2ccccc2)n1C    0.221
19. O=C(CCl)N1CCOC2(CCC2)C1    0.31
20. Cc1cc(CC(C)NC(=O)CCl)n[nH]1 (centres undefined)    -0.165
21. Cc1cccc(N(CCC#N)C(=O)CCl)c1C    0.294
22. CC1Cc2ccccc2N1C(=O)CCl (centres undefined)    -0.438
23. O=C(CCl)N1CCc2sccc2C1    -0.0149
24. Cc1nc(CC2CCN(C(=O)CCl)CC2)no1    -0.771
25. O=C(CCl)Nc1ccc(F)cc1F    -0.387
26. CN(Cc1nc2ccccc2[nH]1)C(=O)CCl.Cl    -0.702
27. C[C@H]1CN(C(=O)CCl)CCN1C(=O)c1cnn(C)c1.Cl    0.326
28. O=C(CCl)N1CCOC(c2cccc(F)c2)C1 (centres undefined)    0.244
29. COCC[C@@H](NC(=O)CCl)c1ccccc1    -0.0256

* * *

target: OTUB1 (UniProt Q96FW1); assay: log2 ratio of Biotin-Ahx-Ub-VS probe labelling (fragment/DMSO); higher = less target engagement (more negative = stronger competition), active = hit call of the paper (q ≤ 0.05, log2 ratio ≤ -1); conditions: compound concentration: 200 uM; treatment time: 3 h
Sequence (Q96FW1 whole entry, the tested form may be a part): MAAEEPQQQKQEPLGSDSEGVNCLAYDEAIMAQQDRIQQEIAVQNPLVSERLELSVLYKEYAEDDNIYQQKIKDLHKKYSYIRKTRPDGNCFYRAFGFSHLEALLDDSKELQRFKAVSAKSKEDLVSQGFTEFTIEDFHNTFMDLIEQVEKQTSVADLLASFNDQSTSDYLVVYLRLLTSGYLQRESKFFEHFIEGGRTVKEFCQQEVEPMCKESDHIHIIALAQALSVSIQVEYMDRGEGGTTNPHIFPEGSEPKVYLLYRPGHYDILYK
Classes by log2 ratio of Biotin-Ahx-Ub-VS probe labelling: 0 (below -0.2), 1 (-0.2 to below -0.04), 2 (-0.04 or more)

1) COc1cccc(CN(C)C(=O)CCl)c1    2
2) Cc1cccc(N2CCC(NC(=O)CCl)C2=O)c1 (centres undefined)    0
3) CN(C)C(=O)c1ccc(CNC(=O)CCl)cc1    1
4) O=C(CCl)NCc1cccc(F)c1    1
5) Cl.O=C(CCl)N[C@H]1C[C@@H](n2cccn2)C1    0
6) N#Cc1ccc(CNC(=O)CCl)cc1    1
7) O=C(CCl)N(C1=CCCCC1)C1CC1    1
8) Cc1nc(CNC(=O)CCl)c2ccccn12.Cl    1
9) O=C(CCl)Nc1nnc(CC(F)(F)F)o1    2
10) O=C(CCl)N1CC=C(c2c[nH]c3ccccc23)CC1    0
11) COc1ccc(CN(C)C(=O)CCl)cc1    2
12) O=C(CCl)N1CCC(C(=O)N2CCCC2)CC1    2
13) O=C(CCl)N1CCC(=C(F)CO)C1    2
14) O=C(CCl)N1CCN(C(=O)N2CCCCC2)CC1    0
15) O=C(CCl)N1CCOC2(CCC2)CC1    1
16) Cl.Cn1nc2c(c1CNC(=O)CCl)CCCC2    1
17) O=C(CCl)NCc1ccc(Cl)cc1    2
18) Cc1cccc2nc(CCNC(=O)CCl)cn12.Cl    0
19) O=C(CCl)N[C@H]1CC[C@@H](CO)CC1    0
20) CCc1c[nH]c(CNC(=O)CCl)n1.Cl    0
21) O=C(CCl)Nc1ccc(Cl)c(F)c1    0
22) O=C(CCl)N1CC2(CCOCC2)C1    1
23) O=C(CCl)Nc1cccc(C(=O)N2CCSCC2)c1    0
24) N#Cc1ccc(Cl)cc1NC(=O)CCl    0
25) O=C(CCl)N1CCC(C(=O)N2CCCCCC2)CC1    2
26) Cc1cccn2cc(CCNC(=O)CCl)nc12.Cl    2
27) O=C(CCl)N1c2ccccc2NC(=O)C12CCCC2    0
28) O=C(CCl)NCc1ccc(N2CCOCC2)nc1    2
29) Cl.O=C(CN1CCN(C(=O)CCl)CC1)Nc1ccc(F)cc1    2
